# Tested on: PC-14
# protocol_summary: relative viability (nuclei count vs DMSO), 5 days (fraction); higher = more cells survive
# cond: first compound 0.000632 µM
Please respond with Met when measured relative viability is strictly beneath 0.8, and with Not met in all other cases.

molecule: CC(=O)O[C@@]12CO[C@@H]1C[C@H](O)[C@@]1(C)C(=O)[C@H](O)C3=C(C)[C@@H](OC(=O)[C@H](O)[C@@H](NC(=O)OC(C)(C)C)c4ccccc4)C[C@@](O)([C@@H](OC(=O)c4ccccc4)[C@H]21)C3(C)C [Docetaxel] + N=C(N)NC(=N)NCCc1ccccc1 [Phenformin] (partner 250 µM)
answer_label: Met

Threshold test, relative viability < 0.8: CC(=O)O[C@@]12CO[C@@H]1C[C@H](O)[C@@]1(C)C(=O)[C@H](O)C3=C(C)[C@@H](OC(=O)[C@H](O)[C@@H](NC(=O)OC(C)(C)C)c4ccccc4)C[C@@](O)([C@@H](OC(=O)c4ccccc4)[C@H]21)C3(C)C [Docetaxel] + C[C@@H](Oc1cc(-c2cnn(C3CCNCC3)c2)cnc1N)c1c(Cl)ccc(F)c1Cl [Crizotinib] (partner 1 µM)
Not met

Please determine if CC(=O)O[C@@]12CO[C@@H]1C[C@H](O)[C@@]1(C)C(=O)[C@H](O)C3=C(C)[C@@H](OC(=O)[C@H](O)[C@@H](NC(=O)OC(C)(C)C)c4ccccc4)C[C@@](O)([C@@H](OC(=O)c4ccccc4)[C@H]21)C3(C)C [Docetaxel] + CS(=O)(=O)N1CCN(Cc2cc3nc(-c4cccc5[nH]ncc45)nc(N4CCOCC4)c3s2)CC1 [Pictilisib] (partner 1 µM) is below 0.8 in terms of relative viability.
Met

Consider CC(=O)O[C@@]12CO[C@@H]1C[C@H](O)[C@@]1(C)C(=O)[C@H](O)C3=C(C)[C@@H](OC(=O)[C@H](O)[C@@H](NC(=O)OC(C)(C)C)c4ccccc4)C[C@@](O)([C@@H](OC(=O)c4ccccc4)[C@H]21)C3(C)C [Docetaxel] + NC(=O)Nc1cc(-c2cccc(F)c2)sc1C(=O)N[C@H]1CCCNC1 [AZD7762] (partner 0.2 µM) . Does its relative viability lie strictly below 0.8?
Met

Criterion: relative viability strictly below 0.8. Is it met by CC(=O)O[C@@]12CO[C@@H]1C[C@H](O)[C@@]1(C)C(=O)[C@H](O)C3=C(C)[C@@H](OC(=O)[C@H](O)[C@@H](NC(=O)OC(C)(C)C)c4ccccc4)C[C@@](O)([C@@H](OC(=O)c4ccccc4)[C@H]21)C3(C)C [Docetaxel] + Cc1nc(NC(=O)N2CCC[C@H]2C(N)=O)sc1-c1ccnc(C(C)(C)C(F)(F)F)c1 [Alpelisib] (partner 2 µM) ?
Not met

====

# Tested on: NCI-H358
# protocol_summary: relative viability (nuclei count vs DMSO), 5 days (fraction); higher = more cells survive
# cond: first compound 0.5 µM
# maps each entry to its relative viability
Answer field: number only, no words.

Sample answers from the record:
compound: COc1cc2nccc(Oc3ccc(NC(=O)Nc4cc(C)on4)c(Cl)c3)c2cc1OC [Tivozanib] + CC(=O)Nc1cccc(-n2c(=O)n(C3CC3)c(=O)c3c(Nc4ccc(I)cc4F)n(C)c(=O)c(C)c32)c1 [Trametinib] (partner 0.02 µM)
target_or_test_system: NCI-H358
relative viability: 0.144

compound: Nc1ccn([C@@H]2O[C@H](CO)[C@@H](O)[C@@H]2O)c(=O)n1 [Cytarabine] + Cc1cc(Nc2cc(N3CCN(C)CC3)nc(Sc3ccc(NC(=O)C4CC4)cc3)n2)n[nH]1 [Tozasertib] (partner 0.1 µM)
target_or_test_system: NCI-H358
relative viability: 0.0847

compound: Nc1ccn([C@@H]2O[C@H](CO)[C@@H](O)[C@@H]2O)c(=O)n1 [Cytarabine] + C[C@@H](Oc1cc(-c2cnn(C3CCNCC3)c2)cnc1N)c1c(Cl)ccc(F)c1Cl [Crizotinib] (partner 1 µM)
target_or_test_system: NCI-H358
relative viability: 0.231

GET /values?readout=relative viability&item= Nc1ccn([C@@H]2O[C@H](CO)[C@@H](O)[C@@H]2O)c(=O)n1 [Cytarabine] + CCNC(=O)c1noc(-c2cc(C(C)C)c(O)cc2O)c1-c1ccc(CN2CCOCC2)cc1 [Luminespib] (partner 0.01 µM)
0.181

====

# Tested on: NCI-H2170
# protocol_summary: relative viability (nuclei count vs DMSO), 5 days (fraction); higher = more cells survive
# cond: first compound 0.01581 µM
attribute_measured: relative viability
Reply with the value as a number alone.

Example entries and their recorded answers appear below.
molecule: COc1cc2nccc(Oc3ccc(NC(=O)Nc4cc(C)on4)c(Cl)c3)c2cc1OC [Tivozanib] + CS(=O)(=O)N1CCN(Cc2cc3nc(-c4cccc5[nH]ncc45)nc(N4CCOCC4)c3s2)CC1 [Pictilisib] (partner 1 µM)
relative viability: 0.344

molecule: COc1cc2nccc(Oc3ccc(NC(=O)Nc4cc(C)on4)c(Cl)c3)c2cc1OC [Tivozanib] + CC1(C)CCC(c2ccc(Cl)cc2)=C(CN2CCN(c3ccc(C(=O)NS(=O)(=O)c4ccc(N[C@H](CCN5CCOCC5)CSc5ccccc5)c(S(=O)(=O)C(F)(F)F)c4)cc3)CC2)C1 [Navitoclax] (partner 0.5 µM)
relative viability: 0.568

molecule: COc1cc2nccc(Oc3ccc(NC(=O)Nc4cc(C)on4)c(Cl)c3)c2cc1OC [Tivozanib] + Cc1cc(Nc2cc(N3CCN(C)CC3)nc(Sc3ccc(NC(=O)C4CC4)cc3)n2)n[nH]1 [Tozasertib] (partner 0.1 µM)
relative viability: 0.685

molecule: COc1cc2nccc(Oc3ccc(NC(=O)Nc4cc(C)on4)c(Cl)c3)c2cc1OC [Tivozanib] + O=C(c1cc(Cc2n[nH]c(=O)c3ccccc23)ccc1F)N1CCN(C(=O)C2CC2)CC1 [Olaparib] (partner 8 µM)
relative viability: 0.596

molecule: Nc1ccn([C@@H]2O[C@H](CO)[C@@H](O)[C@@H]2O)c(=O)n1 [Cytarabine] + Cc1cc(Nc2cc(N3CCN(C)CC3)nc(Sc3ccc(NC(=O)C4CC4)cc3)n2)n[nH]1 [Tozasertib] (partner 0.1 µM)
relative viability: 0.5

molecule: COc1cc2nccc(Oc3ccc(NC(=O)Nc4cc(C)on4)c(Cl)c3)c2cc1OC [Tivozanib] + N=C(N)NC(=N)NCCc1ccccc1 [Phenformin] (partner 250 µM)
relative viability: 0.42

molecule: Nc1ccn([C@@H]2O[C@H](CO)[C@@H](O)[C@@H]2O)c(=O)n1 [Cytarabine] + N=C(N)NC(=N)NCCc1ccccc1 [Phenformin] (partner 250 µM)
relative viability: 0.321

# context switch: different molecule, same relative viability
Please report the recorded relative viability for COc1cc2nccc(Oc3ccc(NC(=O)Nc4cc(C)on4)c(Cl)c3)c2cc1OC [Tivozanib] + O=C(CCCCCCC(=O)Nc1ccccc1)NO [Vorinostat] (partner 1 µM) .
0.782

====

# System: NCI-H1993
# protocol_summary: relative viability (nuclei count vs DMSO), 5 days (fraction); higher = more cells survive
# cond: first compound 158.11 µM
attribute_measured: relative viability
Reply briefly: the number, and no unit.

compound: O=C(O)CCCCC(CCSCc1ccccc1)SCc1ccccc1 (stereo not drawn) [CPI-613] + CC(=O)c1c(C)c2cnc(Nc3ccc(N4CCNCC4)cn3)nc2n(C2CCCC2)c1=O [Palbociclib] (partner 0.5 µM)
relative viability: 0.468
--
compound: O=C(O)CCCCC(CCSCc1ccccc1)SCc1ccccc1 (stereo not drawn) [CPI-613] + Nc1nc2[nH]cc(CCc3ccc(C(=O)N[C@@H](CCC(=O)O)C(=O)O)cc3)c2c(=O)[nH]1 [Pemetrexed] (partner 0.2 µM)
relative viability: 0.378

Shifting focus to the compound that follows.
# input compound: O=C(O)CCCCC(CCSCc1ccccc1)SCc1ccccc1 (stereo not drawn) [CPI-613] + CS(=O)(=O)CCNCc1ccc(-c2ccc3ncnc(Nc4ccc(OCc5cccc(F)c5)c(Cl)c4)c3c2)o1 [Lapatinib] (partner 2 µM) ; wanted: its relative viability
0.567

====

# Tested on: HOP-62
# protocol_summary: relative viability (nuclei count vs DMSO), 5 days (fraction); higher = more cells survive
# cond: first compound 0.01581 µM
attribute_measured: relative viability
Just the number, please, no unit attached.

compound: COc1cc2nccc(Oc3ccc(NC(=O)Nc4cc(C)on4)c(Cl)c3)c2cc1OC [Tivozanib] + COc1cc2c(Oc3ccc(NC(=O)C4(C(=O)Nc5ccc(F)cc5)CC4)cc3F)ccnc2cc1OCCCN1CCOCC1 [Foretinib] (partner 0.25 µM)
attribute_measured: relative viability
test_value: 1.05

Which relative viability value belongs to Nc1ccn([C@@H]2O[C@H](CO)[C@@H](O)[C@@H]2O)c(=O)n1 [Cytarabine] + CC(=O)Nc1cccc(-n2c(=O)n(C3CC3)c(=O)c3c(Nc4ccc(I)cc4F)n(C)c(=O)c(C)c32)c1 [Trametinib] (partner 0.02 µM) ?
0.327
